- PROTOCOL: qHTS for Inhibitors of human tyrosyl-DNA phosphodiesterase 1 (TDP1): qHTS in cells in absence of CPT; also: nearly all actives have a fitted effect of over 55% in size
- DETAILS: DT40 Tdp1-/- hTDP1 cells, no CPT, ATP luminescence, 48 h
- Experimental: Human tyrosyl-DNA phosphodiesterase 1 (TDP1) is a novel repair gene, and we propose to use it as a new target for anticancer drug development. […] For the primary screen, Tdp1-/-;hTDP1 cells will be exposed to small molecules in the presence or absence of CPT, and their growth kinetics will be evaluated after 48 hours by measuring ATP activity. […] The hit compounds will then be evaluated in the presence or absence of CPT using Tdp1-/- cells. […]
About 64,000 (15%) of roughly 420,000 compounds were called active. Inconclusive results (about 27%) are left out. Calls follow the shape of the dose curve; as a rule, active = well fitted inhibition curve with a large enough effect; inconclusive = small, poorly fitted or top-dose-only effect; inactive = flat fitted curve, though single readings scatter. Not all results are given here.
Allowed answers: active, inactive

As a guide, the following entries are already answered.
COC(=O)[C@]1(Cc2ccccc2)N[C@H](CN(C)S(=O)(=O)c2ccc(OC(F)(F)F)cc2)[C@@H]2C(=O)N(C)C(=O)[C@@H]21    active
CCN(C[C@H]1N[C@@](CC)(C(=O)OC)[C@H]2C(=O)N(Cc3ccccc3)C(=O)[C@@H]12)S(=O)(=O)c1ccc(C(F)(F)F)cc1    active
Cc1nc2scc(-c3cccs3)c2c(=O)n1N    inactive
CCC(C)NC(=O)c1ccccc1NC(=O)c1ccccc1N(C)S(C)(=O)=O (stereo not given)    inactive
COc1ccc(-n2c(=O)c(C)nc3cnc(N4CCOCC4)nc32)cc1    inactive
CC1=CC=CC2=N/C(=N\S(=O)(=O)c3ccc(F)cc3F)c3ccccc3CN12    inactive
COc1ccccc1N1CCN(S(=O)(=O)c2ccc(Cl)cc2)CC1    inactive
CCCc1nc2scc(-c3ccc(C)cc3)c2c(=O)n1N    active
Cc1ccc(C)c(S(=O)(=O)c2nnn3c2nc(N2CCOCC2)c2sccc23)c1    active
CCOC(=O)N1CCc2c(sc3c2c(=O)n(Cc2ccccc2)c(=O)n3CC(=O)Nc2cccc(C)c2)C1    inactive

stdin: Could you kindly confirm the outcome this assay logged for O=C(CSc1ccc(Cl)cc1)NC1CC1 ?
stdout: inactive

stdin: Could you kindly confirm the outcome this assay logged for COc1ccc(C(=O)NCc2ccc(Cl)cc2)cc1S(=O)(=O)N1CCCC1 ?
stdout: inactive

stdin: Could you kindly confirm the outcome this assay logged for CCN(CC)S(=O)(=O)c1ccc2c(c1)N(CC(=O)NCc1ccccc1)C(=O)CS2 ?
stdout: inactive

stdin: Could you kindly confirm the outcome this assay logged for COc1cccc(OC)c1CN(C)C(=O)c1cnccc1C(F)(F)F ?
stdout: inactive

stdin: Could you kindly confirm the outcome this assay logged for O=S(=O)(c1ccc(Br)cc1)c1nnn2c1nc(NC1CCCCCC1)c1sccc12 ?
stdout: inactive

====

- PROTOCOL: qHTS for Inhibitors of human tyrosyl-DNA phosphodiesterase 1 (TDP1): qHTS in cells in absence of CPT; also: nearly all actives have a fitted effect of over 55% in size
- DETAILS: DT40 Tdp1-/- hTDP1 cells, no CPT, ATP luminescence, 48 h
The campaign covered roughly 420,000 compounds. About 64,000 (15%) were called active. Inconclusive results (about 27%) are left out. Calls follow the shape of the dose curve; as a rule, active = well fitted inhibition curve with a large enough effect; inconclusive = small, poorly fitted or top-dose-only effect; inactive = flat fitted curve, though single readings scatter. Only a sample is shown.
Allowed answers: label 1 for active, label 0 for inactive

stdin: Could you kindly confirm the outcome this assay logged for COc1ccc(CN2CN(C(C)C)CSC2=S)cc1 ?
stdout: label 1

stdin: Could you kindly confirm the outcome this assay logged for COc1ccc(CN2CN(C3CCCC3)CSC2=S)cc1 ?
stdout: label 1

stdin: Could you kindly confirm the outcome this assay logged for Nc1nnc(SCC(=O)NC2CCCc3ccccc32)s1 (configuration not stated) ?
stdout: label 0

stdin: Could you kindly confirm the outcome this assay logged for COc1ccc(CN2CC(C(=O)NCCc3ccc(Cl)cc3)CC2=O)cc1 (configuration not stated) ?
stdout: label 0

stdin: Could you kindly confirm the outcome this assay logged for CCN1/C(=C/C(=S)Nc2ccccc2)Sc2ccccc21 ?
stdout: label 1

stdin: Could you kindly confirm the outcome this assay logged for COc1ccc(Cn2c(=O)cc(C)[nH]c2=S)cc1 ?
stdout: label 0

stdin: Could you kindly confirm the outcome this assay logged for Cc1nnc(SCC2=C(C(=O)O)N3C(=O)C(NC(=O)Cn4nc(C)c(Cl)c4C)C3SC2)s1 (configuration not stated) ?
stdout: label 0

stdin: Could you kindly confirm the outcome this assay logged for CCCNc1c(N)c(=O)c1=O ?
stdout: label 0

stdin: Could you kindly confirm the outcome this assay logged for O=C(COc1ccc(Br)cc1)OCC(=O)c1ccc[nH]1 ?
stdout: label 0

stdin: Could you kindly confirm the outcome this assay logged for CC(=O)Nc1ccc(NC(=O)COC(=O)C2CCC(C(C)(C)C)CC2)cc1 (configuration not stated) ?
stdout: label 0

stdin: Could you kindly confirm the outcome this assay logged for CCC(=O)/C=C1\Sc2ccccc2N1CC ?
stdout: label 0

stdin: Could you kindly confirm the outcome this assay logged for COc1ccc(CCNC(=O)COC(=O)C2CCCCC2)cc1 ?
stdout: label 0

Data origin, for the record: PubChem BioAssay AID686978
